# Tested target: T1, Human CD47-C33G (human, UniProt Q08722 19-135)
# T1 construct: also called CD47 mutein with C33G mutation
# T1 sequence (Q08722 19-135 C33G limits assumed): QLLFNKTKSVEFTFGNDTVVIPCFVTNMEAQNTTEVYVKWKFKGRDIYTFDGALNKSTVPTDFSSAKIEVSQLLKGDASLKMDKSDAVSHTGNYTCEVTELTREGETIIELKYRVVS
# Assay details: SPR, IgG captured, CD47 in flow; exp 4;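 further: biacore T200 SPR using IgG from transfected HEK293 supernatants against wild-type human CD47 or its C33G mutein, rates fitted to association and dissociation curves, KD estimated from them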
Reported metric: koff (s⁻¹)
Answer with a number only, understood to be in s⁻¹.

Any idea what its koff is? The binder is 108VH5.M27 / 108VL1.M5 (antibody, human IgG4 S228P, kappa, V domains shown, Full-length IgG4 (S228P), kappa; also called VH5.M27 VL1.M5) VH: EVQLVQSGAEVKKPGASVKVSCKASGYTFTHHWMHWVRQAPGQGLEWMGMIDASDYETRYAQKFQGRVTMTRDTSTSTVYMELSSLRSEDTAVYYCARLGRYYFDYWGQGTLVTVSS VL: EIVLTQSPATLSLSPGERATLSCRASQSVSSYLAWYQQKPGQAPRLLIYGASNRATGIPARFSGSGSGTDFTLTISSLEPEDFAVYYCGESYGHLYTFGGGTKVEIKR
0.0085

Data credit: patent US20260132197A1
